Where do the numbers come from? From ChEMBL document CHEMBL2163220.

The following compounds are shown together with reported pIC50 values.
Tested on: LNCaP
Experiment description: Cytotoxicity against human LNCAP cells incubated for 72 hrs by MTT assay
Assay type: functional, cell-based
Scale: negative log10 of molar concentration, which is what pIC50 denotes.

Example cases with answers are listed next.
{"columns": ["Compound", "pIC50"],
 "data": [
  ["Cc1coc2c1C(=O)C(=O)c1c-2ccc2c1CCC(C)C2 (stereo not given)", 5.46],
  ["Cc1coc2c1C(=O)C(=O)c1c-2ccc2c1CCCC2C (stereo not given)", 5.92],
  ["Cc1coc2c1C(=O)C(=O)c1c-2ccc2c1CCCC2(C)C", 6.30],
  ["Cc1coc2c1C(=O)C(=O)c1c-2ccc2c1CC(C)CC2 (stereo not given)", 5.77],
  ["Cc1coc2c1C(=O)C(=O)c1c-2ccc2c1CC(C)(C)CC2", 5.49]
]}

Summary for this compound, Cc1coc2c1C(=O)C(=O)c1c-2ccc2c1CCC2(C)C : pIC50 is 6.00

Summary for this compound, Cc1coc2c1C(=O)C(=O)c1c-2ccc2c1CCCCC2 : pIC50 is 5.44

Summary for this compound, Cc1coc2c1C(=O)C(=O)c1c-2ccc2c1CCCC2 : pIC50 is 6.22

Summary for this compound, Cc1coc2c1C(=O)C(=O)c1c-2ccc2c1COCC2 : pIC50 is 5.62

Summary for this compound, Cc1coc2c1C(=O)C(=O)c1c-2ccc2c1CCC(C)(C)C2 : pIC50 is 6.15
